- STUDY_TARGET: T1, mature recombinant cynomolgus GDF-15 with an N-terminal Flag and His tag, biotinylated (cynomolgus, UniProt G7PWZ3 197-308, chemically biotinylated with EZ link Sulfo-NHS-LC-Biotin, sites not stated)
- T1 construct: not shown: N-terminal Flag and His tags
- T1 sequence: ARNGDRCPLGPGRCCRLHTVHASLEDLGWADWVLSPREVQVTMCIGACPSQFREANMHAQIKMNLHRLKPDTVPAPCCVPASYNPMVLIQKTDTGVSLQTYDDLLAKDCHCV
- ASSAY_INFO: SPR Biacore 8K, 25 C, biotinylated GDF-15 on streptavidin C1 chip, Fab as analyte
EXPERIMENTAL_READOUT: kon (M⁻¹ s⁻¹)
Just the number in M⁻¹ s⁻¹, nothing appended.

Which measured kon value corresponds to AB1170247 Fab (Fab, V domains shown, Fab of the humanized antibody, expressed as in Spooner et al. 2015) VH: QVQLVQSGSELKKPGASVKVSCKASGYTFTSYDINWVRQAPGQGLEWIGWIYPRDGISKYNEKFKGRATLTVDTSASTAYMELSSLRSEDTAVYYCAGTYDPAYFDYWGQGTTVTVSS VL: EIVLTQSPATLSVSPGERATLSCRASQSISYYLHWYQQKPGQAPRLLIKYASQSISGVPDRFSGSGSGTDFTLKISRVEAEDFGVYYCQQSNSWPYTFGGGTKVEIK ?
4.58e+06
